This section presents molecules with their documented double positive events values.
test: inhibitors of CD8+ T cell-vesicle binding, pilot screen, LFA-1/ICAM-1 modulator project, MLPCN validation set, flow cytometry (AID 2523); details: 2C mouse CD8+ T cells, at 7 µM, stronger effect = lower value; measured here: CD8+/vesicle+ event percentage
Your answer is read as %, so omit the unit and give the number.

Challenge: Fill in: double positive events of `C[C@H]1CCCC(=O)CCC/C=C/c2cc(O)cc(O)c2C(=O)O1` is ___
Response given: 57.4

====

test: modulators of LAP4-GFP expression in yeast, primary screen, S. cerevisiae, multiplex flow cytometry (AID 1873); conditions: 3 h, at 10 µM, stronger effect = higher value
Inconclusive results are not listed.
Here the recorded GFP response vs DMSO is given for each entry.
Write down the numeric answer in % and omit the unit.

[
  {
    "Molecule": "COc1ccccc1CN1CCCCC1c1cccnc1 (stereo not drawn)",
    "GFP response vs DMSO, %": 97.3
  },
  {
    "Molecule": "CN1CCN(C(=O)OC2c3nccnc3C(=O)N2c2ccc(Cl)cn2)CC1 (stereo not drawn)",
    "GFP response vs DMSO, %": 117
  },
  {
    "Molecule": "Cc1ccc(/C=C2/C(=O)NC(=O)N(C)C2=O)cc1",
    "GFP response vs DMSO, %": 97.4
  },
  {
    "Molecule": "C=C1CC[C@@]2(O)[C@H]3Cc4ccc(O)c5c4[C@@]2(CCN3CC2CC2)[C@H]1O5",
    "GFP response vs DMSO, %": 90.1
  },
  {
    "Molecule": "CC12CCC3C(CC=C4CC(O)CCC43C)C1C/C(=C\\c1cccc(F)c1)C2=O (stereo not drawn)",
    "GFP response vs DMSO, %": 113
  },
  {
    "Molecule": "CC12CN3CC(C)(CN(C1)C3c1cccs1)C2O (stereo not drawn)",
    "GFP response vs DMSO, %": 83.5
  }
]

Switching to the query record.
Challenge: Would you kindly share the measured GFP response vs DMSO for `COc1cc2c3cc1Oc1cc(ccc1O)C[C@@H]1c4c(cc(OC)c(O)c4Oc4ccc(cc4)C[C@H]3N(C)CC2)CCN1C` ?
Response given: 81.4

====

experiment: modulators of CIT2-GFP expression in yeast, confirmation, S. cerevisiae, GFP fusion, cherry picks, mother/daughter gates (AID 2274); conditions: S. cerevisiae CIT2-GFP strain, flow cytometry, 3 h; measured here: mother cell gate; at 10 µM; stronger effect = higher value
Here the recorded GFP response, % of DMSO is given for each entry.
Just the number please, in %, no unit attached.

Reference set (5 entries):
[
  {
    "Given Smiles": "C[C@]12CCC(=O)C(O)=C1CC[C@@H]1[C@@H]2CC[C@]2(C)C(=O)CC[C@@H]12",
    "Units": "%",
    "GFP response, % of DMSO": 105
  },
  {
    "Given Smiles": "C[C@]12CC[C@@H](O)C[C@@H]1CC[C@@H]1[C@@H]2CC[C@]2(C)[C@@H](O)CC[C@@H]12",
    "Units": "%",
    "GFP response, % of DMSO": 87.8
  },
  {
    "Given Smiles": "O=[N+]([O-])c1ccc(N2CCNCC2)cc1Sc1ccccn1",
    "Units": "%",
    "GFP response, % of DMSO": 95.5
  },
  {
    "Given Smiles": "Cc1cc(C=C2C(=O)N(C)C(=S)N(C)C2=O)c(C)n1-c1ccncc1",
    "Units": "%",
    "GFP response, % of DMSO": 64.4
  },
  {
    "Given Smiles": "O=C1CN=C(c2ccccc2F)c2cc(Cl)ccc2N1",
    "Units": "%",
    "GFP response, % of DMSO": 111
  }
]

Challenge: Return reported GFP response, % of DMSO; argument: `CCN(CC)c1ccc(/C=C/[N+](=O)[O-])cc1`
Response given: 100

Challenge: Param item: `O=C1NC(=S)N(c2ccccc2)C(=O)/C1=C/c1ccco1`
Response given: 65.5

Challenge: Same question for `CC12CN3CC(C)(CN(C1)C31CCOCC1)C2=O` please.
Response given: 101

Challenge: Check `CN1C(=O)NC(=O)/C(=C\C=C\c2ccccc2[N+](=O)[O-])C1=O` too.
Response given: 70.8

Challenge: Subsequent entry: `C#C[C@]1(O)CC[C@H]2[C@@H]3CCC4=CC(=O)CC[C@]4(C)[C@H]3CC[C@@]21C`
Response given: 92.6

====

assay: modulators of CIT2-GFP expression in yeast, primary screen, S. cerevisiae, GFP fusion, multiplex flow cytometry (AID 1870); settings: 3 h, at 10 µM, stronger effect = higher value;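 also: barcoded CIT2-GFP strain pooled with four other GFP strains with rapamycin as positive control; median GFP fluorescence per well over plate mean of DMSO wells so 100% = DMSO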
The source made the active and inactive calls.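 The calls were made as follows: active = percent response above a set limit, the screen-wide mean plus 3 SD (cut at about 130% in these data); inactive = the rest.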
Parameter: percent response of DMSO control. Scope: all listed entries.

As a guide, the following entries are already answered.
[
  {
    "Compound": "Cc1cccc(C)c1NC1=NCCCS1",
    "percent response of DMSO control": "94.9% (inactive)"
  },
  {
    "Compound": "c1ccc(Cn2ccnc2)cc1",
    "percent response of DMSO control": "90% (inactive)"
  },
  {
    "Compound": "C=C1CC[C@@]2(O)[C@H]3Cc4ccc(O)c5c4[C@@]2(CCN3CC2CC2)[C@H]1O5",
    "percent response of DMSO control": "109% (inactive)"
  },
  {
    "Compound": "COc1ccc2c(c1)CC1(CN2C)C(=O)NC(=O)N(CCc2ccccc2)C1=O (stereo not given)",
    "percent response of DMSO control": "96.6% (inactive)"
  },
  {
    "Compound": "CC1CCC[C@H](O)CCCCCc2cc(O)cc(O)c2C(=O)O1 (stereo not given in full)",
    "percent response of DMSO control": "106% (inactive)"
  }
]

Challenge: What does the record list as percent response of DMSO control for `CC(=O)[C@H]1CC[C@H]2[C@@H]3CC[C@H]4C[C@H](O)CC[C@]4(C)[C@H]3C(=O)C[C@]12C` ?
Response given: 92% (inactive)

Challenge: Similarly, C[C@@H]1O[C@@H](O[C@H]2C[C@@H](O)[C@]3(CO)[C@H]4[C@H](O)C[C@]5(C)[C@@H](C6COC(=O)C6)CC[C@]5(O)[C@@H]4CC[C@]3(O)C2)[C@H](O)[C@H](O)[C@H]1O (stereo not given in full) ?
Response given: 105% (inactive)

Challenge: One more compound: CC12CN3CC(C)(CN(C1)C3c1cccnc1)C2=O (stereo not given)
Response given: 97.9% (inactive)

Challenge: Check `C[C@H]1CCC[C@H](O)CCCCCc2cc(O)cc(O)c2C(=O)O1` too.
Response given: 106% (inactive)

Challenge: Now give it for `CC(C)[C@H]1C(=O)N2CCC[C@H]2[C@]2(O)O[C@](NC(=O)[C@@H]3C=C4c5cccc6[nH]cc(c56)C[C@H]4N(C)C3)(C(C)C)C(=O)N12` too.
Response given: 102% (inactive)

====

tested on: Botulinum neurotoxin type F light chain protease (Clostridium botulinum); assay: Botulinum neurotoxin type F light chain protease inhibition, multiplex microsphere flow cytometry, validation set (AID 588459); details: multiplex microsphere protease substrate cleavage assay, at 10 µM, stronger effect = higher value
Property Name: inhibition (%)
Give your result in % as a bare value.

As a guide, the following entries are already answered.
[
  {
    "Compound": "CC(C)C[C@H]1C(=O)N2CCCC2[C@]2(O)O[C@](NC(=O)[C@@H]3C=C4c5cccc6[nH]cc(c56)CC4N(C)C3)(C(C)C)C(=O)N12 (some centres not stated)",
    "Units": "%",
    "inhibition": -7
  },
  {
    "Compound": "CC(=O)OCC#CCSc1nc2ccccc2n1C",
    "Units": "%",
    "inhibition": 0.7
  },
  {
    "Compound": "CC(C)N(Cc1nccn1C)C(=O)CC1C(=O)NCCN1Cc1ccccc1C(F)(F)F (configuration not stated)",
    "Units": "%",
    "inhibition": -1.2
  },
  {
    "Compound": "O=C(O)CCCc1ccccc1",
    "Units": "%",
    "inhibition": -3.3
  },
  {
    "Compound": "COc1ccccc1NC(=O)N1CCc2[nH]c3ccc(Cl)cc3c2C1",
    "Units": "%",
    "inhibition": 6.8
  },
  {
    "Compound": "N/C(=N\\OC(=O)/C=C/c1ccccc1)c1ccc(Br)cc1",
    "Units": "%",
    "inhibition": -3.1
  },
  {
    "Compound": "C(=C\\c1ccc2ccccc2n1)/c1ccccc1",
    "Units": "%",
    "inhibition": 1.3
  },
  {
    "Compound": "Cc1ncc([N+](=O)[O-])n1CC(O)CCl (configuration not stated)",
    "Units": "%",
    "inhibition": 3.5
  }
]

Query compound follows.
Challenge: Form field: inhibition recorded for `COc1ccc2oc(=O)c(-c3nc(C)cs3)cc2c1` with Botulinum neurotoxin type F light chain protease (Clostridium botulinum) (enter value)
Response given: 2.9
